Tested on: U2OS
Measurement protocol: Multiplex assay against U2OS
Assay type: toxicity, cell-based
Reported conditions: human, 24 h, 10 µM, compound concentration 10 uM, replicate 1
List of Population Tubulin-Different-Phenotype (%) values.
Please respond with the number in % and leave the unit unwritten.

Consider the following illustrative entries.
- Compound: "CC[C@@]1(O)C(=O)OCc2c1cc1n(c2=O)Cc2cc3ccccc3nc2-1 [CAMPTOTHECIN]"
  Experimental system: "U2OS"
  Unit descriptor: "%"
  Result value: 37
- Compound: "C=CC(=O)Nc1cc(-n2c(=O)ccc3cnc4ccc(-c5ccc(NS(C)(=O)=O)cc5)cc4c32)ccc1C"
  Experimental system: "U2OS"
  Unit descriptor: "%"
  Result value: 15
- Compound: "C[C@@H](Oc1cc(-n2cnc3ccc(CN4CCN(C)CC4)cc32)sc1C(N)=O)c1ccccc1C(F)(F)F [GSK-461364]"
  Experimental system: "U2OS"
  Unit descriptor: "%"
  Result value: 100
- Compound: "Cl.NC[C@@H]1O[C@H](C23CC4CC(CC(C4)C2)C3)Cc2c1ccc(O)c2O"
  Experimental system: "U2OS"
  Unit descriptor: "%"
  Result value: 17
- Compound: "Cc1ccc(S(=O)(=O)NC2c3ccccc3Oc3ccccc32)cc1"
  Experimental system: "U2OS"
  Unit descriptor: "%"
  Result value: 19

Lookup: Fill in the blank: the reported Population Tubulin-Different-Phenotype (%) of NC(=O)c1ccc2nc(-c3ccc(C4(N)CCC4)cc3)c(-c3ccccc3)n2n1 [BAY-1125976] is ____.
Found: 30

Lookup: Cool, now CCOc1ccn(-c2ccc(F)cc2)c(=O)c1C(=O)Nc1ccc(Oc2ccnc(N)c2Cl)c(F)c1 [BMS-777607]
Found: 30

Lookup: Cool, now `CC(/C=C1\SC(=S)N(CCCC(=O)Nc2ccc(C(=O)O)c(O)c2)C1=O)=C\c1ccccc1`
Found: 6

Lookup: Cool, now `N#Cc1cccc(C(=O)Nc2cc(-c3ccccc3)nn2-c2ccccc2)c1`
Found: 98

----------
List of Population Mitochondria Different-Phenotype (%) values.
Tested on: HEK-293T
Measurement protocol: Multiplex assay against HEK293T
Format: toxicity, cell-based
Reported conditions: human, 24 h, 1 µM, compound concentration 1 uM, replicate 2
Please respond with the number in % and leave the unit unwritten.

Consider the following illustrative entries.
- Compound: "CC(/C=C1\\SC(=S)N(CCCC(=O)Nc2ccc(C(=O)O)c(O)c2)C1=O)=C\\c1ccccc1"
  Unit descriptor: "%"
  Result value: 10
- Compound: "Cl.Cn1c2c(c3ccc(Cl)c(Cl)c31)C(C#N)C1(CCNCC1)NC2=O (stereo not drawn)"
  Unit descriptor: "%"
  Result value: 1

Lookup: Fill in the blank: the reported Population Mitochondria Different-Phenotype (%) of `CCOc1ccn(-c2ccc(F)cc2)c(=O)c1C(=O)Nc1ccc(Oc2ccnc(N)c2Cl)c(F)c1` is ____.
Found: 4

----------
Test system: HEK-293T
Measurement protocol: Multiplex assay against HEK293T
Assay type: toxicity, cell-based
Reported conditions: human, 24 h, 10 µM, compound concentration 10 uM, replicate 1
Value kind: Population Healthy Nuclei (%)
Please respond with the number in % and leave the unit unwritten.

Consider the following illustrative entries.
- Given smiles: "Cc1c(Nc2ccc(S(=O)(=O)N3CCN(C)CC3)cc2F)nc2ccc(Nc3cnn(C4CC4)c3)cn2c1=O"
  Unit descriptor: "%"
  Population Healthy Nuclei (%): 85
- Given smiles: "C[C@@H](Oc1cc(-n2cnc3ccc(CN4CCN(C)CC4)cc32)sc1C(N)=O)c1ccccc1C(F)(F)F"
  Unit descriptor: "%"
  Population Healthy Nuclei (%): 10
- Given smiles: "NC(=O)c1ccc2nc(-c3ccc(C4(N)CCC4)cc3)c(-c3ccccc3)n2n1"
  Unit descriptor: "%"
  Population Healthy Nuclei (%): 77

Turning now to a further compound:
Lookup: Fill in the blank: the reported Population Healthy Nuclei (%) of `CCCc1cc(C)[nH]c(=O)c1CNC(=O)c1cc(-c2ccc(N3CCN(C(C)C)CC3)nc2)cc2c1cnn2C(C)C` is ____.
Found: 16

----------
System: Fibroblast
Measurement protocol: Multiplex assay against human fibroblast
Type: toxicity, cell-based
Reported conditions: 24 h, 1 µM, compound concentration 1 uM, replicate 2
With a cut-off of 10%, any Population Fragmented Nuclei (%) strictly below it is called True; any Population Fragmented Nuclei (%) meeting it or above is called False.

Worked examples follow.
- Compound: "Cl.Cn1c2c(c3ccc(Cl)c(Cl)c31)C(C#N)C1(CCNCC1)NC2=O (centres undefined)"
  Experimental system: "Fibroblast"
  Class label: "False"
- Compound: "N#CCNC(=O)c1ccc(-c2ccnc(Nc3ccc(N4CCOCC4)cc3)n2)cc1 [MOMELOTINIB]"
  Experimental system: "Fibroblast"
  Class label: "True"
- Compound: "Cc1c(P(=S)(c2ccccc2)c2ccccc2)n2ccccc2[n+]1C/C=C/c1ccccc1.[Br-]"
  Experimental system: "Fibroblast"
  Class label: "False"
- Compound: "Oc1cccc(-c2nc(N3CCOCC3)c3oc4ncccc4c3n2)c1 [PI-103]"
  Experimental system: "Fibroblast"
  Class label: "False"
- Compound: "C=CC(=O)Nc1cc(-n2c(=O)ccc3cnc4ccc(-c5ccc(NS(C)(=O)=O)cc5)cc4c32)ccc1C"
  Experimental system: "Fibroblast"
  Class label: "False"
- Compound: "CCOc1ccn(-c2ccc(F)cc2)c(=O)c1C(=O)Nc1ccc(Oc2ccnc(N)c2Cl)c(F)c1 [BMS-777607]"
  Experimental system: "Fibroblast"
  Class label: "False"

Lookup: Take the compound `Cc1ccc(S(=O)(=O)NC2c3ccccc3Oc3ccccc32)cc1` and say whether its Population Fragmented Nuclei (%) is less than 10%.
Found: True

Lookup: Cool, now CC(C)[C@H](CO)Nc1nc(Nc2cccc(Cl)c2)c2ncn(C(C)C)c2n1 [PURVALANOLA]
Found: True

----------
Test system: U2OS
Measurement protocol: Multiplex assay against U2OS
Format: toxicity, cell-based
Reported conditions: human, 48 h, 10 µM, compound concentration 10 uM, replicate 1
With a cut-off of 200, any Total Cell Count strictly below it is called t; any Total Cell Count meeting it or above is called f.

- Compound: "CC(C)c1cc(Nc2nc(N3CCC[C@H](N)C3)ncc2C(N)=O)cc(C(C)C)n1"
  Class label: "t"
- Compound: "N#CCNC(=O)c1ccc(-c2ccnc(Nc3ccc(N4CCOCC4)cc3)n2)cc1 [MOMELOTINIB]"
  Class label: "f"
- Compound: "Cc1c(Nc2ccc(S(=O)(=O)N3CCN(C)CC3)cc2F)nc2ccc(-c3cnn(C4CC4)c3)cn2c1=O"
  Class label: "t"
- Compound: "Cc1c(P(=S)(c2ccccc2)c2ccccc2)n2ccccc2[n+]1C/C=C/c1ccccc1.[Br-]"
  Class label: "f"
- Compound: "CN1CCN(Cc2ccc(-c3cnc4[nH]cc(-c5ccc6[nH]ccc6c5)c4c3)cc2)CC1"
  Class label: "t"
- Compound: "CN1C(=O)[C@@H](NC(=O)c2cc3ccccc3[nH]2)N=C(c2ccccc2)c2ccccc21 [DEVAZEPIDE]"
  Class label: "t"
- Compound: "Cc1ccc(S(=O)(=O)NC2c3ccccc3Oc3ccccc32)cc1"
  Class label: "t"
- Compound: "CCCCN(CC)c1nc(C)nc2c1c(C)cn2-c1c(C)cc(C)cc1C.Cl"
  Class label: "t"

Consider the record given below.
Lookup: Take the compound `CC(/C=C1\SC(=S)N(CCCC(=O)Nc2ccc(C(=O)O)c(O)c2)C1=O)=C\c1ccccc1` and say whether its Total Cell Count is less than 200.
Found: f

----------
System: Fibroblast
Measurement protocol: Multiplex assay against human fibroblast
Format: toxicity, cell-based
Reported conditions: 12 h, 1 µM, compound concentration 1 uM, replicate 1
List of Population Normal (%) values.
Quick note: unit goes after the number.

- Compound: "Cc1c(Nc2ccc(S(=O)(=O)N3CCN(C)CC3)cc2F)nc2ccc(Nc3cnn(C4CC4)c3)cn2c1=O"
  Population Normal (%): "87%"
- Compound: "CCCc1cc(C)[nH]c(=O)c1CNC(=O)c1cc(-c2ccc(N3CCN(C(C)C)CC3)nc2)cc2c1cnn2C(C)C"
  Population Normal (%): "77%"
- Compound: "Cl.Cn1c2c(c3ccc(Cl)c(Cl)c31)C(C#N)C1(CCNCC1)NC2=O (configuration not stated)"
  Population Normal (%): "88%"
- Compound: "Oc1cccc(-c2nc(N3CCOCC3)c3oc4ncccc4c3n2)c1"
  Population Normal (%): "87%"
- Compound: "C[C@@H](Oc1cc(-n2cnc3ccc(CN4CCN(C)CC4)cc32)sc1C(N)=O)c1ccccc1C(F)(F)F"
  Population Normal (%): "85%"
- Compound: "C=CC(=O)Nc1cc(-n2c(=O)ccc3cnc4ccc(-c5ccc(NS(C)(=O)=O)cc5)cc4c32)ccc1C"
  Population Normal (%): "92%"
- Compound: "CC[C@H](Nc1ncnc2[nH]cnc12)c1nc2cccc(F)c2c(=O)n1-c1ccccc1"
  Population Normal (%): "88%"
- Compound: "CC(/C=C1\\SC(=S)N(CCCC(=O)Nc2ccc(C(=O)O)c(O)c2)C1=O)=C\\c1ccccc1"
  Population Normal (%): "88%"
- Compound: "CCCCCNC(=N)N/N=C/c1c[nH]c2ccc(OC)cc12.O=C(O)/C=C\\C(=O)O [TEGASEROD MALEATE]"
  Population Normal (%): "91%"
- Compound: "CN1C(=O)[C@@H](NC(=O)c2cc3ccccc3[nH]2)N=C(c2ccccc2)c2ccccc21 [DEVAZEPIDE]"
  Population Normal (%): "87%"

Lookup: Fill in the blank: the reported Population Normal (%) of `COc1cc(Nc2ccnc3ccc(Br)cc23)cc(OC)c1OC` is ____.
Found: 88%

Lookup: Cool, now `CCOC(=O)CCNc1cc(N2CCc3ccccc3CC2)nc(-c2ccccn2)n1`
Found: 83%

Lookup: Cool, now `Cc1c(Nc2ccc(S(=O)(=O)N3CCN(C)CC3)cc2F)nc2ccc(-c3cnn(C4CC4)c3)cn2c1=O`
Found: 88%

Lookup: Cool, now `CCOc1ccn(-c2ccc(F)cc2)c(=O)c1C(=O)Nc1ccc(Oc2ccnc(N)c2Cl)c(F)c1`
Found: 86%

Lookup: Cool, now `CC(C)[C@H](CO)Nc1nc(Nc2cccc(Cl)c2)c2ncn(C(C)C)c2n1`
Found: 82%

Lookup: Cool, now `CC[C@@H]1C(=O)N(C)c2cnc(Nc3ccc(C(=O)NC4CCN(C)CC4)cc3OC)nc2N1C1CCCC1`
Found: 86%

Lookup: Cool, now `Cc1ccc(S(=O)(=O)NC2c3ccccc3Oc3ccccc32)cc1`
Found: 88%
